# Study target: C-Raf FL (Homo sapiens (Human), UniProt P04049, Y340E/Y341E)
# Sequence (P04049 whole entry Y340E/Y341E): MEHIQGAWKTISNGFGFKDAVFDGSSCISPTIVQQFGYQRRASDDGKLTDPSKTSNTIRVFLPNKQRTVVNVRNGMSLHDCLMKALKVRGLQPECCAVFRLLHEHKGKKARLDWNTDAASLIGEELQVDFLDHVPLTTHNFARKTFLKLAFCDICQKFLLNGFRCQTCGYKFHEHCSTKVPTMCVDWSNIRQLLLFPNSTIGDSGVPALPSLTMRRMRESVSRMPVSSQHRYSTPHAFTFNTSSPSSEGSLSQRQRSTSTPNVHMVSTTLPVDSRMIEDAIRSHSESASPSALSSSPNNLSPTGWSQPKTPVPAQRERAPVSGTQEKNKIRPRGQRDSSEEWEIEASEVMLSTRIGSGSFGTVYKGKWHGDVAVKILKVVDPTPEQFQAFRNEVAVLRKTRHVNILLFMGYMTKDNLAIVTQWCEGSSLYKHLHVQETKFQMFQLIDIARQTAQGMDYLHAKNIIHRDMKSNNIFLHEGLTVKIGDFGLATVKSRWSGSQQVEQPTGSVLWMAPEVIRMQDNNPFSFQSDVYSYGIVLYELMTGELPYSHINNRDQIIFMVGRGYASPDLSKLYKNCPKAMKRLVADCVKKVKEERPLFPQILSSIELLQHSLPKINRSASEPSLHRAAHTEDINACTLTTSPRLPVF
# Sequence (P63104 whole entry partner): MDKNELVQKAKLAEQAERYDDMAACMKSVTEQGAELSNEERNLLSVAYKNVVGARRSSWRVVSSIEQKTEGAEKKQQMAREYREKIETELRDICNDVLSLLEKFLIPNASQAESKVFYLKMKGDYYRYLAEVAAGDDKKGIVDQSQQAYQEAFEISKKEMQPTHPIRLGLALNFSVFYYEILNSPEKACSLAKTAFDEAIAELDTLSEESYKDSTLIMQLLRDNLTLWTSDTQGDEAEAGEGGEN
# Procedure details: In vitro Raf activity determination (Alpha Screen, phospho-MEK), C-Raf FL (full length, Y340E/Y341E)
# Condition summary: ATP 1 μM; 60 min pre-incubation; 1 hour reaction; column head does not say FL or TR
Observation type: IC50 (nM)
Answers are plain numbers, in nM.

INSERT INTO assay_data (molecule, readout_units, readout_value) VALUES
  ('CCOc1ncc(-c2cc(NC(=O)c3ccnc(C(C)(F)F)c3)ccc2C)cc1C1(O)COC1 [Example 123]', 'nM', 0.165),
  ('COc1cc(-c2cc(NC(=O)c3cccc(C(F)(F)F)c3)ccc2C)cc(C2COC2)c1 [Example 21]', 'nM', 0.373),
  ('Cc1ccc(NC(=O)c2ccnc(C(C)(F)F)c2)cc1-c1cc2c(c(C3CCOCC3)c1)NC(=O)C(C)(CO)O2 (stereo not drawn) [Example 191]', 'nM', 0.1),
  ('CCOc1ncc(-c2cc(NC(=O)c3ccnc(C(C)(C)F)c3)cnc2C)cc1C1(O)CCOC1 (stereo not drawn) [Example 296]', 'nM', 4),
  ('CCOc1ncc(-c2cc(NC(=O)c3cccc(C(F)(F)F)c3)cnc2C)cc1C1(O)CCOC1 (stereo not drawn) [Example 294]', 'nM', 2),
  ('Cc1ccc(NC(=O)c2cc(C(F)(F)F)ccn2)cc1-c1cc(OCCO)nc(C2CCOCC2O)c1 (single isomer, unassigned) [Example 248]', 'nM', 0.7);

Batch: IC50 for all items listed.
1. Cc1ccc(NC(=O)c2ccnc(C(C)(F)F)c2)cc1-c1cc(OCCO)nc(C2(CF)CCOCC2)c1 [Example 211]
2. Cc1ccc(NC(=O)c2ccnc(C(C)(C)F)c2)cc1-c1cc(OCCO)nc(C2CCOCC2O)c1 (stereo not drawn) [Example 244]
3. COc1ncc(-c2cc(NC(=O)c3ccnc(C4(C#N)CC4)c3)ccc2C)cc1C1(O)COC1 [Example 100]
4. Cc1ncc(NC(=O)c2cccc(C(F)(F)F)c2)cc1-c1cnc(OCCO)c(C2(F)COC2)c1 [Example 37]
5. Cc1ncc(NC(=O)c2cccc(C(F)(F)F)c2)cc1-c1cc(NCCO)nc(C2(O)CCOCC2)c1 [Example 302]
6. COc1ncc(-c2cc(NC(=O)c3cc(C(C)(C)N)cc(C(F)(F)F)c3)ccc2C)cc1C1(CF)COC1 [Example 108]
7. Cc1ccc(NC(=O)c2ccnc(C(F)(F)F)c2)cc1-c1cc(C2(C)COC2)c(OCCO)nn1 [Example 14]
8. CCOc1ncc(-c2cc(NC(=O)c3cc(C(C)(C)N)cc(C(F)(F)F)c3)ccc2C)cc1C1(O)COC1 [Example 120]

1. 0.3
2. 3
3. 0.3
4. 0.354
5. 1.53
6. 0.424
7. 0.2
8. 2.2

Quick one: IC50 for COc1ncc(-c2cc(NC(=O)c3ccnc(C(C)(C)C#N)c3)ccc2C)cc1C1(CF)COC1 [Example 106] ?
0.146

---

# Study target: b-Raf (V600E) (Homo sapiens (Human), UniProt P15056, V600E)
# Sequence (P15056 whole entry V600E): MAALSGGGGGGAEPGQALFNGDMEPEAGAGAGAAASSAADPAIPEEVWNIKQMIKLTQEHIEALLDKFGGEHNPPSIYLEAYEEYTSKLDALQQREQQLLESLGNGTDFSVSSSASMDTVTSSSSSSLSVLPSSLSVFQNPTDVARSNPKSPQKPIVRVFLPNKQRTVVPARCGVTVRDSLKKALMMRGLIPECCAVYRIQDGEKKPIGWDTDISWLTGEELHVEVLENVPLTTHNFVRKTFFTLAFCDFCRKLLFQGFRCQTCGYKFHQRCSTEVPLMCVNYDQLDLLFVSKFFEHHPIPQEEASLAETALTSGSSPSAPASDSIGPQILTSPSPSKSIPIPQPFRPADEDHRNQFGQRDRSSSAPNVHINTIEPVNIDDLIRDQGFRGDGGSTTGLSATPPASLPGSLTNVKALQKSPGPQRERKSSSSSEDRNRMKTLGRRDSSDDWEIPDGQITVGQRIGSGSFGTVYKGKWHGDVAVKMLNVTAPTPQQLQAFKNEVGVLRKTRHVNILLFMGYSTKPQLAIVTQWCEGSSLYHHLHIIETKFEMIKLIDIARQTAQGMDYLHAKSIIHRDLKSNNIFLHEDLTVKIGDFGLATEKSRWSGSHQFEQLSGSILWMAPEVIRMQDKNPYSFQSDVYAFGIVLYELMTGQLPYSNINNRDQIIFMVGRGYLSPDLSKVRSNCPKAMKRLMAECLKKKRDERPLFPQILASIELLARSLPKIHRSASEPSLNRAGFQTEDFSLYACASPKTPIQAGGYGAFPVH
# Procedure details: In vitro Raf activity determination (Alpha Screen, phospho-MEK), b-Raf (V600E)
# Condition summary: ATP 10 μM, 60 min pre-incubation, 3 hours reaction
Assignment: determine reported pIC50 for the given compounds.
Give bare numbers, as −log10 of the molar value.

INSERT INTO assay_data (compound, observation_type, readout_value) VALUES
  ('Cc1ccc(NC(=O)c2cccc(C(F)(F)F)c2)cc1-c1cnc(OC2CCOCC2)c(C2(O)COC2)c1 [Example 119]', 'pIC50', 9.09),
  ('COc1ncc(-c2cc(NC(=O)c3cc(C(F)(F)F)ccn3)ccc2C)cc1C1(F)COC1 [Example 88]', 'pIC50', 9.03),
  ('CCOc1ncc(-c2cc(NC(=O)c3cnnc(C(F)(F)F)c3)ccc2C)cc1C1(C)COC1 [Example 67]', 'pIC50', 9.52),
  ('CCOc1nnc(-c2cc(NC(=O)c3ccnc(C(C)(F)F)c3)cnc2C)cc1C1(C)COC1 [Example 127]', 'pIC50', 8.50);

Record pIC50 per entry; entries follow.
1. Cc1ncc(NC(=O)c2ccnc(C(C)(C)F)c2)cc1-c1cccc(C2(C)COC2)c1 [Example 69]
2. COc1ncc(-c2cc(NC(=O)c3ccnc(C(C)(C)F)c3)ccc2C)cc1C1(C#N)COC1 [Example 111]

1. 8.29
2. 8.56

State the recorded pIC50 for every item in the following list.
1. COc1ncc(-c2cc(NC(=O)c3cc(C(F)(F)F)ccn3)ccc2C)cc1C1(O)COC1 [Example 84]
2. Cc1ncc(NC(=O)c2ccnc(C(C)(F)F)c2)cc1-c1cccc(C2COC2)c1 [Example 70]

1: 8.66; 2: 7.89

---

# Study target: C-Raf FL (Homo sapiens (Human), UniProt P04049, Y340E/Y341E)
# Procedure details: In vitro Raf activity determination (Alpha Screen, phospho-MEK), C-Raf FL (full length, Y340E/Y341E)
# Condition summary: ATP 1 μM; 60 min pre-incubation; 1 hour reaction; column head does not say FL or TR
Observation type: pIC50
Give bare numbers, as −log10 of the molar value.

Take a look at these entries with their results.
INSERT INTO results (compound, readout_value) VALUES
  ('Cc1ncc(NC(=O)c2ccnc(C(F)(F)F)c2)cc1-c1cc(OCCO)nc(C2(F)COC2)c1 [Example 51]', 8.55),
  ('Cc1ccc(NC(=O)c2ccnc(C(C)(F)F)c2)cc1-c1cc(OCCO)nc(C2(CO)CCOCC2)c1 [Example 216]', 9.70),
  ('Cc1ccc(NC(=O)c2cc(C(F)(F)F)ccn2)cc1-c1cc2c(c(C3CCOCC3)c1)NC(=O)C(C)(CO)O2 (single isomer, unassigned) [Example 194]', 10.15),
  ('Cc1ccc(NC(=O)c2cc(C(F)(F)F)ccn2)cc1-c1cc2c(c(C3CCOCC3)c1)OC(C)(C)C(=O)N2 [Example 199]', 9.00);

For each of the compounds below, note its pIC50.
1. Cc1ccc(NC(=O)c2ccnc(C#N)c2)cc1-c1cc(OC[C@H](O)CO)nc(C2CCOCC2)c1 [Example 279]
2. Cc1ccc(NC(=O)c2ccnc(C(F)(F)F)c2)cc1-c1cc(OCCO)nc(C2CCOCC2)c1 [Example 190]
3. Cc1ccc(NC(=O)c2ccnc(C(C)(F)F)c2)cc1-c1c[nH]c(=O)c(C2(O)COC2)c1 [Example 13]
4. CCOc1ncc(-c2cc(NC(=O)c3cccc(C(F)(F)F)c3)cnc2C)cc1C1(C#N)CCOC1 (stereo not drawn) [Example 171]

10.15
9.10
9.00
9.00

Return reported pIC50 values for all items listed beneath this line.
1. Cc1ccc(NC(=O)c2cnnc(C(F)(F)F)c2)cc1-c1cc(OCCO)nc(C2(CF)CCOCC2)c1 [Example 212]
2. COc1ncc(-c2cc(NC(=O)c3cc(C(C)(C)N)cc(C(F)(F)F)c3)cnc2C)cc1C1(CF)COC1 [Example 109]
3. CCOc1ncc(-c2cc(NC(=O)c3cccc(C(F)(F)F)c3)cnc2C)cc1C1(CF)CCOC1 (stereo not drawn) [Example 167]
4. CCOc1nnc(-c2cc(NC(=O)c3ccnc(C(C)(F)F)c3)cnc2C)cc1C1(C)COC1 [Example 127]
5. CCOc1ncc(-c2cc(NC(=O)c3cc(C(C)(C)N)cc(C(F)(F)F)c3)cnc2C)cc1C1(F)COC1 [Example 130]

1: 10.10; 2: 8.65; 3: 9.00; 4: 9.01; 5: 8.51

Would you mind giving pIC50 for every compound in the list below?
1. CCOc1ncc(-c2cc(NC(=O)c3cccc(C(F)(F)F)c3)cnc2C)cc1C1(F)CCOC1 (stereo not drawn) [Example 297]
2. Cc1ccc(NC(=O)c2ccnc(C(F)(F)F)c2)cc1-c1cc(OCCO)nc(C2CCOCC2O)c1 (single isomer, unassigned) [Example 250]
3. COc1ncc(-c2cc(NC(=O)c3cc(C(F)(F)F)cc(C(C)(C)N)n3)ccc2C)cc1C1(C(F)F)COC1 [Example 149]
4. Cc1ccc(NC(=O)c2ccnc(C(C)(C)F)c2)cc1-c1cc(C2COC2)c(=O)n(C)c1 [Example 110]
5. CCC(F)(F)c1cc(C(=O)Nc2cnc(C)c(-c3cnc(OC)c(C4(C#N)COC4)c3)c2)ccn1 [Example 117]
6. Cc1ccc(NC(=O)c2cc(C(F)(F)F)ccn2)cc1-c1cc2c(c(C3CCOCC3)c1)OC(C)(CO)C(=O)N2 (stereo not drawn) [Example 202]
7. Cc1ncc(NC(=O)c2ccnc(C(F)(F)F)c2)cc1-c1cnc(OCCO)c(C2(F)COC2)c1 [Example 38]

1: 9.00; 2: 9.00; 3: 9.06; 4: 8.82; 5: 8.85; 6: 9.52; 7: 9.14

Provide the reported pIC50 of each entry below, same order.
1. Cc1ccc(NC(=O)c2cc(C(F)(F)F)ccn2)cc1-c1cc(OCCO)nc(C2(CF)CCOCC2)c1 [Example 214]
2. CCOc1nnc(-c2cc(NC(=O)c3ccnc(C(C)(F)F)c3)ccc2C)cc1C1CCOCC1 [Example 225]
3. CCOc1ncc(-c2cc(NC(=O)c3ccnc(C(C)(C)C#N)c3)ccc2C)cc1C1(CO)CCOC1 (stereo not drawn) [Example 289]
4. Cc1ccc(NC(=O)c2cccc(C(F)(F)F)c2)cc1-c1cc(C2COC2)c2nccn2n1 [Example 6]
5. CCOc1nnc(-c2cc(NC(=O)NCCC(C)(C)C)ccc2C)cc1C1CCOCC1 [Example 318]
6. CCOc1ncc(-c2cc(NC(=O)c3ccnc(C(C)(C)F)c3)ccc2C)cc1C1(O)CCOC1 (stereo not drawn) [Example 295]
7. CCOc1nnc(-c2cc(NC(=O)c3cc(C(F)(F)F)c(Cl)cn3)ccc2C)cc1C1CCOCC1 [Example 228]
8. COc1ncc(-c2cc(NC(=O)c3ccnc(C(C)(C)F)c3)cnc2C)cc1C1(F)COC1 [Example 82]

1: 9.52; 2: 10.70; 3: 8.70; 4: 9.52; 5: 10.00; 6: 9.00; 7: 10.22; 8: 8.95

Give measured pIC50 for every item shown.
1. Cc1ccc(NC(=O)c2ccnc(C(C)(F)F)c2)cc1-c1cc(C2CCOCC2)nc(N(CCO)CCO)c1 [Example 177]
2. Cc1ccc(NC(=O)c2cc(C(F)(F)F)ccn2)cc1-c1cc(OCCO)nc(C2CCOCC2O)c1 (stereo not drawn) [Example 247]

[9.21, 9.40]
